# test_protocol: folding stability dG unfold from chymotrypsin proteolysis; higher = more stable
Below is a list of entries, each paired with its recorded folding stability dG unfold value.
property_measured: folding stability dG unfold

>>> print(df.to_string())
                               residue_codes   measured_result
 0  SAGGSSMRKLIIIGPEGVTLERPIGPERTVEDVKAEWEAIGNVKFEEYPETGEVVVYLPEEALKEKSAGGSA [r2_164_JUSTAS]     1.47 kcal/mol
 1  SAGGSAGGSAKKPPVYKIKIKVVNKKTKKEIEIEVEVKAGKTPEEIAKELAKKFGIEKVEIESAGGSAGGSA [r18_58_TrROS_Hall]     1.47 kcal/mol
 2  SAGSSLRLELDLEVTLYAPVVSVRPDGSLSLVPGSTRPIPVRLRVTFELTLDPDNPLNVSINVDIEADFSAG [r14_274_TrMRF]      5.9 kcal/mol
 3  SAGMSADIPVDPVTGTLTITVTDAFNPDKSTTTTVPLSELEAELGRPLTLEEVAARVEAAGVATVTVGPSAG [r14_809_JUSTAS]  -0.0285 kcal/mol
 4  SAGGSAGGSPDEGDPVKITILIMIMIPNENGEPYFIFIRVEITIDPKDNKIQITKIDEIYIFPSAGGSAGGS [r12_358_TrROS]     4.66 kcal/mol
 5  SAGEVEKITLTIVVEDPNMTLEEILKKALEALGLKEEDVEVKIVSIKEETLPDGRKLTVIEVEITVPKPSAG [r5_528_TrROS_Hall]     3.43 kcal/mol
 6  SAGGSAGGSAGGWFYKRDPDGKPLEPRPVVVIKISYEISYDADGGWKLKLNISIYPVYWISAGGSAGGSAGG [r7_572_TrROS]     5.01 kcal/mol
 7  SAGGSAGGSAGGSPVIFVDPVEGRARVLLAAPAPNPDGEPGGLGLAEVEFEVGDVRLLLSAGGSAGGSAGGS [r4_10_TrMRF]    0.753 kcal/mol
 8  SAGGMKVVIYVKDPEKFLKAIEEIENIPLENVKFEPLEGDYYKYEFPNLEAVEELIKKGYDILKIEPSAGGS [r16_381_TrMRF]     2.57 kcal/mol
 9  SKTIYFPIPNDDPEEAVEWIADKLLEEHGHKIKDVEIPHKNGYYVRIEVDPNNPKIDIEVWPYDPDGEPLSA [r9_173_TrROS]    0.728 kcal/mol
10  SAMVEVRIEYDEETGEIRIEVRAEEEGEELTEEEIEELARELAEELGLPVEIKEIRVEKAPEVEEVVLESAG [r14_556_TrROS_Hall]    0.757 kcal/mol
11  SAGPEVVVFKGIEVEVTEVPPELLENLPPDVIAIPFGDRVLLIRVREYDVARFPPIPPLGANPETGELSSAG [r14_126_TrMRF]     2.61 kcal/mol
12  SAGGGPPAKPVYLTVTVTTEDPVETAKKVEEEVKKLFPDAEILKVEVKKNPETNLYTVTVYVKKLVKSAGGS [r8_120_TrMRF]     4.58 kcal/mol
13  SAGGSAGGSAEPPEVRIRLEVRLLPDGTLEVTAEIEVDGKTYRITVTVDAKTNEIVSVSIEPSAGGSAGGSA [r18_459_TrROS_Hall]     3.89 kcal/mol
14  SAGGSAGGKEVYKIKVKNAEIVDFDEETGELTIKLKETGKEIKIPLKAIKKIEITDDYIYIYVESAGGSAGG [r6_313_TrROS_Hall]     4.21 kcal/mol
15  SAGGKIEEVARELAKELNAVSIDFRTEGDVPSVEIRFRIPGSPLWLRVTITRDPDGNISVSIEPDPRSAGGS [r16_433_TrMRF]     4.16 kcal/mol
16  SAGEEIERLLKEIEEAVRKAYPDKVVKVDLVKVELRPVLVVDPGTPRIEERTEIFLEVKVTVTHPDELSAGG [r19_293_TrMRF]     2.77 kcal/mol
17  SAGGMLVVLLDDRPEVLPVNPERFETPEEAVEAVAREVAERFPDAGERRVVVVNEDGEEVATVELTPESAGG [r13_257_TrMRF]    0.875 kcal/mol
18  SAGGMVLVSTPSNRGASSEILKEAAEAISAGDPDKAAELAREYFQKNFPPDEPIKIEIFVDPPVEPESAGGS [r8_48_TrMRF]    0.744 kcal/mol
19  SAGGSAGGSMKTVKPTELLASLSPEEEVILTTPTSATRLTVEEVKNVPEDTPVDVEVVPRNAASAGGSAGGS [r12_501_JUSTAS]    0.685 kcal/mol
20  SAGGSAGGSAGEEFIKKIPPGAEVKPITPLESEGKVYVKITVKKKDENGKWTEEEFIFKVSAGGSAGGSAGG [r17_140_JUSTAS]     1.38 kcal/mol
